- testTarget: T1, human TSLP (human, UniProt Q969D9 29-159)
- T1 construct: used biotinylated in some assays; also called hTSLP; recombinant human TSLP
- T1 sequence (Q969D9 29-159 R127A/R130S limits assumed): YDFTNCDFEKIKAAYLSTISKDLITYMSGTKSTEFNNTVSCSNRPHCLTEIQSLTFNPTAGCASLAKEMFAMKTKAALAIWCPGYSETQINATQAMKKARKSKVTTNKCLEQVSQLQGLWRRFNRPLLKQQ
- assayMethodText: ELISA, plate coated with human TSLP, test antibodies as human IgG1
# EC50 (read off the curve) listing for each entry below

Before answering, review these 2 worked examples.
- binder: "TSLP-0108 (antibody, V domains shown) VH: QVQLQESGPGLVKPSETLSLTCAVSGYSISSGYGWSWIRQPPGKGLEWIGYISYYGSTSYNPSLKSRVTISRDTSKNQFSLKLSSVTAADTAVYYCARTNLLYFDSWGQGTLVTVSS VL: EIVMTQSPATLSLSPGERATLSCRASQSVSNNLAWYQQKPGQAPRLLIYDASSRATGIPARFSGSGSGTDFTLTISSLEPEDFAVYYCQQYSDWPEYSFGQGTKVEIK"
  result: "~0.06 µg/mL"
- binder: "TSLP-0112 (antibody, V domains shown) VH: QVQLQESGPGLVKPSETLSLTCAVSGYSISSGYGWSWIRQPPGKGLEWIGYISYYGSTSYNPSLKSRVTISRDTSKNQFSLKLSSVTAADTAVYYCARTNLLYFDYWGQGTLVTVSS VL: EIVMTQSPATLSLSPGERATLSCRASQSVSSYLAWYQQKPGQAPRLLIYDASSRATGIPARFSGSGSGTDFTLTISSLEPEDFAVYYCQQYSDWPQYSFGQGTKVEIK"
  result: "~0.08 µg/mL"

Turning to the following binder.
Per the records, this binder ( TSLP-0110 (antibody, V domains shown) VH: QVQLQESGPGLVKPSETLSLTCAVSGYSISSGYGWSWIRQPPGKGLEWIGYISYYGSTSYNPSLKSRVTISRDTSKNQFSLKLSSVTAADTAVYYCARTNLLYFDSWGQGTLVTVSS VL: EIVMTQSPATLSLSPGERATLSCRASQSVSSYLAWYQQKPGQAPRLLIYDTSSRATGIPARFSGSGSGTDFTLTISSLEPEDFAVYYCQQYSNWPQYSFGQGTKVEIK ) has EC50 (read off the curve) equal to ~0.08 µg/mL
